# Tested on: human SMAD7 mRNA
# Assay: Antisense inhibition of human SMAD7 mRNA expression in Hep3B cells by 3-10-3 cEt gapmers, 10,000 nM, electroporation (Example 2)
# Assay type: cell-based
# Setup conditions: Hep3B cells, electroporation with 10,000 nM antisense oligonucleotide, approximately 24 hours, SMAD7 mRNA by RT-PCR (RTS5062), relative to untreated control cells
Strand notation (5' to 3'): a small letter for the sugar, then the base; units joined by * are phosphorothioate-linked, units joined directly phosphodiester-linked; [ ] holds rarer units or linkages, { } end groups; capitals alone tell only the bases. k = constrained ethyl (cEt); [5mC] = 5-methylcytosine; d = 2'-deoxy (DNA)
Think of 50% as a floor: if % Inhibition stands on it or above, it is label 1; beneath it, label 0.

* 830070 (kA*kA*kA*dG*dG*dT*dA*dA*dG*d[5mC]*d[5mC]*dA*dG*k[5mC]*kT*k[5mC]; antisense) [compound 830070] | label 0
* 799969 (kT*kT*kA*dG*dA*dG*dT*dG*dA*dG*dT*dT*d[5mC]*k[5mC]*kT*k[5mC]; antisense) [compound 799969] | label 0
* 798766 (k[5mC]*kT*kG*dA*dA*d[5mC]*dA*d[5mC]*dT*dT*dT*dG*d[5mC]*kA*k[5mC]*kA; antisense) [compound 798766] | label 0
* 800020 (kA*kA*k[5mC]*d[5mC]*dT*d[5mC]*dT*dG*dA*dA*dG*dG*d[5mC]*kA*kA*kA; antisense) [compound 800020] | label 0
* 799494 (antisense kA*kG*kG*dA*dT*dA*d[5mC]*dA*d[5mC]*dT*dT*dA*dA*kT*k[5mC]*kA) [compound 799494] | label 0
* 799332 (kG*kG*kG*dA*dA*dT*dG*d[5mC]*d[5mC]*d[5mC]*dT*dT*dT*kG*kA*kG; antisense) [compound 799332] | label 0
* 800109 (antisense kA*k[5mC]*kA*dG*d[5mC]*d[5mC]*dA*d[5mC]*dA*dA*dG*dT*d[5mC]*kA*k[5mC]*kA) [compound 800109] | label 1
* 799506 (antisense kG*kG*kA*dG*dA*dG*d[5mC]*d[5mC]*d[5mC]*dG*dG*d[5mC]*dT*kA*kA*kG) [compound 799506] | label 0
* 799889 (antisense kA*kA*kA*dA*dG*dG*dA*d[5mC]*dA*dA*dA*dA*d[5mC]*k[5mC]*k[5mC]*k[5mC]) [compound 799889] | label 0
* 799505 (antisense k[5mC]*k[5mC]*k[5mC]*dG*dG*d[5mC]*dT*dA*dA*dG*dG*dA*dA*kA*kG*kG) [compound 799505] | label 0
* 830169 (antisense k[5mC]*kT*k[5mC]*dT*dG*dT*dT*dT*dG*dG*dA*d[5mC]*dA*kA*kG*kT) [compound 830169] | label 1
* 800045 (kG*kA*kG*dG*dA*dG*d[5mC]*dA*dA*dG*dG*dG*dA*kG*kT*kG; antisense) [compound 800045] | label 1
* 830023 (antisense kT*k[5mC]*kA*d[5mC]*dA*dT*dG*d[5mC]*dT*dT*dT*dG*d[5mC]*kG*kG*kG) [compound 830023] | label 1
* 799906 (antisense k[5mC]*kA*kT*dG*d[5mC]*dA*dG*dT*d[5mC]*dG*dA*dA*dT*k[5mC]*kA*kT) [compound 799906] | label 0
* 798754 (kA*kG*k[5mC]*d[5mC]*dT*dG*d[5mC]*dA*dG*dT*d[5mC]*d[5mC]*dA*kG*kG*k[5mC]; antisense) [compound 798754] | label 0
* 830159 (antisense k[5mC]*k[5mC]*kA*d[5mC]*dT*dA*dA*dA*dT*dT*dG*dA*dG*kA*kA*k[5mC]) [compound 830159] | label 0
* 798719 (antisense kA*kG*k[5mC]*dA*dT*d[5mC]*d[5mC]*dA*dG*d[5mC]*d[5mC]*d[5mC]*dT*kG*k[5mC]*k[5mC]) [compound 798719] | label 0
* 830142 (antisense kT*kG*kT*dG*d[5mC]*dA*d[5mC]*d[5mC]*dA*dG*dG*dT*dG*kA*kG*k[5mC]) [compound 830142] | label 1
* 798755 (kG*k[5mC]*k[5mC]*d[5mC]*dA*dG*d[5mC]*d[5mC]*dT*dG*d[5mC]*dA*dG*kT*k[5mC]*k[5mC]; antisense) [compound 798755] | label 0
* 798757 (kG*k[5mC]*kG*d[5mC]*dA*dG*dG*d[5mC]*dT*dG*d[5mC]*dG*d[5mC]*kG*k[5mC]*k[5mC]; antisense) [compound 798757] | label 0
* 830058 (kG*kG*kT*dA*dG*dG*d[5mC]*dA*d[5mC]*dA*dT*d[5mC]*dA*kT*k[5mC]*kA; antisense) [compound 830058] | label 0
* 830145 (antisense kT*kG*kG*dG*dT*dG*dT*dG*d[5mC]*dA*d[5mC]*d[5mC]*dA*kG*kG*kT) [compound 830145] | label 0
